Recorded values, source patent US20240018502A1.

# measured-target: plasma purified human complement protein C3 (human) (UniProt P01024)
# Sequence (P01024 23-667, chain 1 of 2): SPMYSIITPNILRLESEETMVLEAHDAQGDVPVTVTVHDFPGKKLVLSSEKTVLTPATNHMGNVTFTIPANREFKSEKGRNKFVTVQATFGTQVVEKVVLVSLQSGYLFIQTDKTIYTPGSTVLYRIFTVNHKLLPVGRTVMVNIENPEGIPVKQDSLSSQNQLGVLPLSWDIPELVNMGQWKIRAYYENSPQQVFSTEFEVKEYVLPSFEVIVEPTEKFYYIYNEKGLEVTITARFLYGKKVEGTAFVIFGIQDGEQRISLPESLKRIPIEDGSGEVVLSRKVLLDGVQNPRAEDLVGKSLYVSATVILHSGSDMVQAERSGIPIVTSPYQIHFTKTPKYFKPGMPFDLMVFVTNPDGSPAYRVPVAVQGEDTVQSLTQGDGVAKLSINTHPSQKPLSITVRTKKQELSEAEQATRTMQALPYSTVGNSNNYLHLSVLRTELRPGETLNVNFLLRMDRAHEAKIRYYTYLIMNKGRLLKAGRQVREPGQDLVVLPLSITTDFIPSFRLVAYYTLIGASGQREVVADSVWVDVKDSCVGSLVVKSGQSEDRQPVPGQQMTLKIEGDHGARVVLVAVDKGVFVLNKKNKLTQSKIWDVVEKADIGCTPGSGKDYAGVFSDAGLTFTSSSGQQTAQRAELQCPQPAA
# Sequence (P01024 672-1663, chain 2 of 2): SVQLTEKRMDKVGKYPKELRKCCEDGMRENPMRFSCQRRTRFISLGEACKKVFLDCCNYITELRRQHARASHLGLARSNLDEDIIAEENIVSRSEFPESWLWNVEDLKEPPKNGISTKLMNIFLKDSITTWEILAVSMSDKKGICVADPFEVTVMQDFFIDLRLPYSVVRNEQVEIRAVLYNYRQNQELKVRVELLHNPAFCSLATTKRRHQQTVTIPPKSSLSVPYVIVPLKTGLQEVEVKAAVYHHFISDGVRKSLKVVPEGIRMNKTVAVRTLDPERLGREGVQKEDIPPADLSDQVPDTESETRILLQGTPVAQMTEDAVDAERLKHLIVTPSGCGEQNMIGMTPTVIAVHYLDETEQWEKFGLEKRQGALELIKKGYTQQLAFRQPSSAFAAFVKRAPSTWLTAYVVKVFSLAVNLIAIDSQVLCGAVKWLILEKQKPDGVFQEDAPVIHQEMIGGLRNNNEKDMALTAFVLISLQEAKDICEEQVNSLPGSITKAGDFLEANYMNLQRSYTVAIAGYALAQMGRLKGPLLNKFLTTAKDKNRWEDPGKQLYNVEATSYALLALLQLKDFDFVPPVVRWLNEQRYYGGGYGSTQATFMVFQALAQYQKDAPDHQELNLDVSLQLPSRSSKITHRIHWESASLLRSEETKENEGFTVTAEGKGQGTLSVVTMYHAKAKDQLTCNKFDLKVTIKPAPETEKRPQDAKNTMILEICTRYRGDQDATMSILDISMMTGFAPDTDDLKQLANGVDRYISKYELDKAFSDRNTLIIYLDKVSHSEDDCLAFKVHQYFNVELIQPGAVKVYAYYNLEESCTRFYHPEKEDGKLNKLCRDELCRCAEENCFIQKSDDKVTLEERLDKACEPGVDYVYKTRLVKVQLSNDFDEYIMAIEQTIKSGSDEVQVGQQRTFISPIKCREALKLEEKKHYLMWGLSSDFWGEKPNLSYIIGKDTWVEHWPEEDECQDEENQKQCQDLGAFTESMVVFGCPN
# assay-notes: cell-based or functional assay
observable: EC50 of hC3 cleavage (nM)

{"binder": "MTSP-1 I41R/ins97aV/F97D/T98P/F99L/C122S/G151N/Q175L/Q192E (enzyme) VVGGTDADEGEWPWQVSLHALGQGHRCGASLISPNWLVSAAHCYIDDRGFRYSDPTQWTAFLGLHDQSQRSAPGVQERRLKRIISHPFFNDDVPLDYDIALLELEKPAEYSSMVRPISLPDASHVFPAGKAIWVTGWGHTQYGGTNALILQKGEIRVINQTTCENLLPQLITPRMMCVGFLSGGVDSCEGDSGGPLSSVEADGRIFQAGVVSWGDGCAQRNKPGVYTRLPLFRDWIKENTGV", "result": 187}
{"binder": "MTSP-1 Y59F/D96V/ins97aE/F97T/T98G/F99L/C122S/Q175L/Q192E (enzyme) VVGGTDADEGEWPWQVSLHALGQGHICGASLISPNWLVSAAHCFIDDRGFRYSDPTQWTAFLGLHDQSQRSAPGVQERRLKRIISHPFFNVTEGLDYDIALLELEKPAEYSSMVRPISLPDASHVFPAGKAIWVTGWGHTQYGGTGALILQKGEIRVINQTTCENLLPQLITPRMMCVGFLSGGVDSCEGDSGGPLSSVEADGRIFQAGVVSWGDGCAQRNKPGVYTRLPLFRDWIKENTGV", "result": 293}
{"binder": "MTSP-1 Q38H/I41A/D60bV/F60eI/Y60gW/F97T/ins97aE/T98G/F99L/C122S/G151N/Q175L/Q192D (enzyme) VVGGTDADEGEWPWQVSLHALGHGHACGASLISPNWLVSAAHCYIDVRGIRWSDPTQWTAFLGLHDQSQRSAPGVQERRLKRIISHPFFNDTEGLDYDIALLELEKPAEYSSMVRPISLPDASHVFPAGKAIWVTGWGHTQYGGTNALILQKGEIRVINQTTCENLLPQLITPRMMCVGFLSGGVDSCDGDSGGPLSSVEADGRIFQAGVVSWGDGCAQRNKPGVYTRLPLFRDWIKENTGV", "result": 2.91}
